Where these numbers come from: PubChem BioAssay AID1996

Provide the recorded solubility kinetic for the entries that follow.
Conditions: buffer; pH 7.4; 200.0 µM
Numbers only, in µg/mL.

- Structure: "CN(C)c1ccc(C(=O)N=c2sccn2C)cc1[N+](=O)[O-]"
  Recorded endpoint: "solubility kinetic"
  Unit name: "µg/mL"
  Endpoint result: 1.4
- Structure: "COc1ccc(CNC(=O)COC(=O)c2ccc3ccccc3n2)cc1"
  Recorded endpoint: "solubility kinetic"
  Unit name: "µg/mL"
  Endpoint result: 16.3

Let us examine a further case.
Lab note: measured solubility kinetic of Cc1cccc(NC(=O)NC2CCCCCCC2)c1C was 0.6

###

Conditions: buffer; pH 7.4; 200.0 µM
Provide the recorded solubility kinetic for the entries that follow.
Answers are plain numbers, in µg/mL.

- Molecule: "CC(NC(=O)c1ccc([N+](=O)[O-])cc1Cl)C1CC2CCC1C2 (stereo not given)"
  Endpoint result: 28

# map each molecule to its solubility kinetic
1. CC12CCC(C1)C(C)(C)C2NS(=O)(=O)c1ccc(F)cc1 (stereo not given)
2. CN1/C(=C/C=C(C#N)C#N)C=Cc2ccccc21
3. CCOc1ccc(NC(=O)NC(=O)N(C(C)C)S(C)(=O)=O)cc1

[6.9, 1.1, 43.1]

# map each molecule to its solubility kinetic
1. NC(=S)Nc1ccc(C(F)(F)F)cc1Cl
2. Cc1cc2cc(CNC(=O)COc3ccccc3)ccc2n1C
3. CCOC(=O)c1c(N)sc2c1CCN(CCc1ccccc1)C2

1. 33.5
2. 5.2
3. 31.7

###

Details: buffer; pH 7.4; 200.0 µM
Provide the recorded solubility kinetic for the entries that follow.

Some entries whose results are on file:
- Molecule: "COC(=O)Cc1c(O)ccn(CCc2c[nH]c3ccccc23)c1=O"
  Recorded endpoint: "solubility kinetic"
  Endpoint result: "> 49 µg/mL"
- Molecule: "CC1(C)CC(NC(=O)c2cc(S(=O)(=O)N3CCOCC3)ccc2Cl)CC(C)(C)N1.Cl"
  Recorded endpoint: "solubility kinetic"
  Endpoint result: "> 72.1 µg/mL"
- Molecule: "CN(C1CCCCC1)S(=O)(=O)c1cn(C)c(=O)n(C)c1=O"
  Recorded endpoint: "solubility kinetic"
  Endpoint result: "> 47.3 µg/mL"
- Molecule: "CCC(CO)NCc1ccccc1OC(C)C.Cl (stereo unspecified)"
  Recorded endpoint: "solubility kinetic"
  Endpoint result: "> 41.1 µg/mL"
- Molecule: "N#Cc1ccc(COC(=O)c2cnc3ccccc3n2)cc1"
  Recorded endpoint: "solubility kinetic"
  Endpoint result: "6.1 µg/mL"

Lab note: measured solubility kinetic of CNc1snc(C)c1C(=O)OCC(=O)N(C)Cc1ccccc1 was 49.8 µg/mL

###

Conditions: buffer; pH 7.4; 200.0 µM
Provide the recorded log10 of solubility kinetic for the entries that follow.
Use the decimal logarithm of solubility kinetic (µg/mL).

Some entries whose results are on file:
- Molecule: "Cc1ccc2c(C)c(C(=O)NCCN3CCCC(O)C3)oc2c1C (configuration not stated)"
  log10 of solubility kinetic: 1.63
- Molecule: "COc1ccc(CCN(C)C(=O)c2cnc(C)cn2)cc1OC"
  log10 of solubility kinetic: 1.58
- Molecule: "CCCOc1nc2ccccc2cc1/C=C/C(=O)O"
  log10 of solubility kinetic: 0.92
- Molecule: "COc1ccc(OCCN2C(=O)c3cccc(N)c3C2=O)cc1"
  log10 of solubility kinetic: 0.04

# map each molecule to its log10 of solubility kinetic
1. CCOC(=O)Cc1csc(NC(=O)c2ccc(Cl)s2)n1
2. COc1ccc(CNC(=O)c2cc(S(=O)(=O)N3CCCCC3)ccc2Cl)cc1OC

1.12
0.49

# map each molecule to its log10 of solubility kinetic
1. CC(C)NC(=O)C(=O)c1cn(C)c2ccccc12
2. O=C(C(=O)N1CCN(c2ccccc2)CC1)c1c[nH]c2ccccc12

1: 1.52; 2: 0.30
